biological target: hPD-1-HIS (human) (UniProt Q15116); test: ELISA, plate-coated PD-1 protein, anti-human IgG detection
Sequence (Q15116 25-167 limits assumed): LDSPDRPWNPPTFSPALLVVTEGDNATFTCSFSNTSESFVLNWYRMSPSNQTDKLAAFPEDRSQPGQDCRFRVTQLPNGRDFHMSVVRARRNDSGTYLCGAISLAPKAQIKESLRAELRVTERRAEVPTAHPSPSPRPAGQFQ
Parameter hPD-1-HIS Binding (OD 450): see the listing below.
The answer is to be given in OD 450; state only the numeric part.

Illustrative cases are given below, each with its answer.
binder	hPD-1-HIS Binding (OD 450)
4G9-3 (antibody, human IgG1, kappa, V domains shown) VH: QVQLVQSGAEVKKPGASVKVSCKASGYTFTTYGINWVRQATGQGLEWMGWINTYSGVPGYAQKFQGRVTMTLNTSISTAYMELSSLRSEDTAVYYCARGGRESAYWGQGTLVTVSS VL: EIVMTQSPATLSVSPGERATLSCRASQSIGTSLHWYQQKPGGAPRLLIKYASESITGIPARFSGSGSGTEFTLTISSLQSEDFAVYYCQQSNSWPYTFGQGTKLEIKR	0.451
4G9-5 (antibody, human IgG1, kappa, V domains shown) VH: QVQLVQSGAEVKKPGASVKVSCKASGYTFTTYGINWVRQATGQGLEWMGWINTYSGVPGYAQKFQGRVTMTLNTSISTAYMELSSLRSEDTAVYYCARGVRVFYHWGQGTLVTVSS VL: EIVMTQSPATLSVSPGERATLSCRASQSIGTSLHWYQQKPGGAPRLLIKYASESITGIPARFSGSGSGTEFTLTISSLQSEDFAVYYCQQSNSWPYTFGQGTKLEIKR	0.383
4G9-8 (antibody, human IgG1, kappa, V domains shown) VH: QVQLVQSGAEVKKPGASVKVSCKASGYTFTTYGINWVRQATGQGLEWMGWINTYSGVPGYAQKFQGRVTMTLNTSISTAYMELSSLRSEDTAVYYCARVERGDAYWGQGTLVTVSS VL: EIVLTQSPSSLSASVGDRVTITCRASQDIRRDFGWYQQKPGLAPELLIYDASRLRSGVPSRFSGSGSGTLFTFTITNLQPEDFATYYCLQDYDFPRTFGQGTKVDIKR	0.346

Next:
[Q] For the binder 4G9-1 (antibody, human IgG1, kappa, V domains shown) VH: QVQLVQSGAEVKKPGASVKVSCKASGYTFTTYGINWVRQATGQGLEWMGWINTYSGVPGYAQKFQGRVTMTLNTSISTAYMELSSLRSEDTAVYYCARGGRGIAYWGQGTLVTVSS VL: DIQLTQSPSSLSASVGDRVTITCRASQGISNSLAWFQQKPGKVPKRLIYAASNLQSGVPSRFSGSGSGTEFTLTISSLQPEDFATYYCQQSYSTPYTFGQGTKLEIKR , what hPD-1-HIS Binding (OD 450) is on record?
[A] 0.874

The origin of these recorded values is patent US20250136692A1.
